Reported melting point values for the following molecules.

Worked examples, 3 molecules total:
> print(dat)
                  compound.structure.string  endpoint.value
1  Cc1ccc(-c2nc3c(c(-c4ccc(C)cc4)n2)CCN(C(=O)CCCCCCC(=O)NO)C3)cc1   110 to 112 °C
2  O=C(CCCCCCC(=O)N1CCc2c(nc(-c3ccccc3)nc2-c2ccccc2)C1)NO   115 to 117 °C
3  O=C(CCCCCCC(=O)N1CCc2c(nc(-c3cccs3)nc2-c2cccs2)C1)NO   128 to 129 °C

So what's the measured melting point for this one? `O=C(CCCCCCC(=O)N1CCc2c(nc(-c3ccsc3)nc2-c2ccsc2)C1)NO` 123 to 124 °C

Which value of melting point has been reported for `COc1cccc(-c2nc3c(c(-c4cccc(OC)c4)n2)CCN(C(=O)CCCCCCC(=O)NO)C3)c1` in the records? 117 to 118 °C

What value of measured melting point is listed for `O=C(CCCCCCC(=O)N1CCc2c(nc(-c3ccoc3)nc2-c2ccoc2)C1)NO` ? 104 to 106 °C

Item `O=C(CCCCCCC(=O)N1CCc2c(nc(-c3ccc(C(F)(F)F)cc3)nc2-c2ccc(C(F)(F)F)cc2)C1)NO` has what recorded melting point? 145 to 146 °C

Field request: melting point | item: `COc1ccc(-c2nc3c(c(-c4ccc(OC)cc4)n2)CCN(C(=O)CCCCCCC(=O)NO)C3)cc1` 117 to 118 °C

###

- Tested on: HCT116
- METHOD: Antiproliferative assay (Alamar blue, 72 h), HCT116
- Format: cell-based
- RECORDED CONDITIONS: Homo sapiens, HCT-116, HCT116 cells, three independent experiments, SD < 10%, read-out: Antiproliferative effect IC50, HCT116
REPORTED PROPERTY: pIC50
Scale note: pIC50 = -log10(concentration in M).

> print(dat)
                                   compound     tgt  endpoint.value
1  COc1ccc(-c2nc3c(c(-c4ccc(OC)cc4)n2)CCN(C(=O)CCCCCCC(=O)NO)C3)cc1  HCT116            5.33

Please report the recorded pIC50 for O=C(CCCCCCNC(=O)c1cnc(N(c2ccccc2)c2ccccc2)nc1)NO [Compound 1, reference compound] . 5.19

Look up pIC50: `O=C(CCCCCCC(=O)N1CCc2c(nc(-c3ccccc3)nc2-c2ccccc2)C1)NO` 4.63

Form field: reported pIC50 of `COc1cccc(-c2nc3c(c(-c4cccc(OC)c4)n2)CCN(C(=O)CCCCCCC(=O)NO)C3)c1` 5.49

###

- TGT: HDAC8 (Homo sapiens, UniProt Q9BY41)
- Sequence (Q9BY41 1-377): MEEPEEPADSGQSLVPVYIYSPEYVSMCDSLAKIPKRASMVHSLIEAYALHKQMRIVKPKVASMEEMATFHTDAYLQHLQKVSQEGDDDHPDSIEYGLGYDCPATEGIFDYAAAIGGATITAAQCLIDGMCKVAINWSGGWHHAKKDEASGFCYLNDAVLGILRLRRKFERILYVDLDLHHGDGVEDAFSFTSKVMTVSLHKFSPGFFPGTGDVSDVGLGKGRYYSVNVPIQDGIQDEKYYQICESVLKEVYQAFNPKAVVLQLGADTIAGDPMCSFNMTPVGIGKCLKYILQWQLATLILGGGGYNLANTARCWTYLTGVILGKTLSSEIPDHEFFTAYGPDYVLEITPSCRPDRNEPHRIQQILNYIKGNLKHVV
REPORTED PROPERTY: IC50 (nM)
Give the quantity in nM, number only.

Returns the measured IC50 for the input compound. Input: `COc1cccc(-c2nc3c(c(-c4cccc(OC)c4)n2)CCN(C(=O)CCCCCCC(=O)NO)C3)c1` 510
